# System: human red blood cells
# experiment: Hemolytic activity
# Assay type: cell-based
# stated-conditions: red cells of human, 1 h, 150
Square brackets hold non-standard residues; d marks the D form. Peptide text beside a SMILES is read from it. d1Nal = N[C@H](Cc1cccc2ccccc12)C(=O)O; dNle = CCCC[C@@H](N)C(=O)O
experimental-endpoint: %H (% Hemolysis at 150 µM) (%)
Numbers only, in %.

Example compounds with recorded %H (% Hemolysis at 150 µM):
compound	value-units	%H (% Hemolysis at 150 µM)
CCCC[C@@H](NC(=O)[C@@H](CCCC)NC(=O)[C@@H](Cc1cccc2ccccc12)NC(=O)[C@@H](CCCCN)NC(=O)[C@@H](Cc1ccccc1)NC(=O)[C@@H](Cc1cccc2ccccc12)NC(=O)[C@@H](CCCCN)NC(=O)[C@H](N)CCCCN)C(N)=O [Compound 19, kk(1-nal)fk(1-nal)(nle)(nle)-NH2] (H-[dK][dK][d1Nal][dF][dK][d1Nal][dNle][dNle]-NH2; N-terminus assumed)	%	56
CCCC[C@@H](NC(=O)[C@@H](CCCCN)NC(=O)[C@@H](Cc1cccc2ccccc12)NC(=O)[C@@H](CCCCN)NC(=O)[C@@H](Cc1ccccc1)NC(=O)[C@@H](Cc1cccc2ccccc12)NC(=O)[C@@H](CCCCN)NC(=O)[C@@H](C)N)C(N)=O [Compound 1, ak(1-nal)fk(1-nal)k(nle)-NH2] (H-[dA][dK][d1Nal][dF][dK][d1Nal][dK][dNle]-NH2)	%	41

Provide each entry's %H (% Hemolysis at 150 µM) from the list below.
1. CCCC[C@@H](NC(=O)[C@@H](CCCCN)NC(=O)[C@@H](Cc1cccc2ccccc12)NC(=O)[C@H](NC(=O)[C@@H](Cc1ccccc1)NC(=O)[C@@H](Cc1cccc2ccccc12)NC(=O)[C@@H](CCCCN)NC(=O)[C@H](N)CCCCN)[C@H](C)O)C(N)=O [Compound 14, kk(1-nal)ft(1-nal)k(nle)-NH2] (H-[dK][dK][d1Nal][dF][dT][d1Nal][dK][dNle]-NH2; N-terminus assumed)
2. NCCCC[C@@H](N)C(=O)N[C@H](CCCCN)C(=O)N[C@H](Cc1cccc2ccccc12)C(=O)N[C@H](Cc1ccccc1)C(=O)N[C@H](CCCCN)C(=O)N[C@H](Cc1cccc2ccccc12)C(N)=O [Compound 31, kk(1-nal)fk(1-nal)-NH2] (HELM PEPTIDE1{[dK].[dK].[O=C([C@@H](Cc1cccc2ccccc12)N[*:1])[*:2]].[dF].[dK].[O=C([C@@H](Cc1cccc2ccccc12)N[*:1])[*:2]].[am]}$$$$V2.0; N-terminus assumed)
3. CCCC[C@@H](NC(=O)[C@H](NC(=O)[C@@H](Cc1cccc2ccccc12)NC(=O)[C@@H](CCCCN)NC(=O)[C@@H](Cc1ccccc1)NC(=O)[C@@H](Cc1cccc2ccccc12)NC(=O)[C@@H](CCCCN)NC(=O)[C@H](N)CCCCN)[C@H](C)O)C(N)=O [Compound 22, kk(1-nal)fk(1-nal)t(nle)-NH2] (H-[dK][dK][d1Nal][dF][dK][d1Nal][dT][dNle]-NH2; N-terminus assumed)

1: 28; 2: 20; 3: 66
